Tested on: HT29 colon
Experiment: NCI tumour cell line growth inhibition, 48 h
property-name: TGI (µM)
Report as a plain number; the unit µM is understood.

Q) Find TGI for COc1ccc(CN2C(=O)/C(=C\c3cc(OC)c(OC)c(OC)c3)c3cc(OC)ccc32)cc1 on HT29 colon and write it down.
A) 4.45

Q) State measured TGI of the compound CNc1ccccc1C(=O)N/N=C/C=C/c1ccccc1 with HT29 colon.
A) 12.9

Q) Print HT29 colon TGI for CC(C(=O)N1C(=O)N(C(=O)C(C)C(O)c2ccccc2)C(c2ccccc2)C1c1ccccc1)C(O)c1ccccc1 (stereo not given) .
A) 18.8

Q) State, for HT29 colon, measured TGI of the compound listed here: Oc1ccc2ccccc2c1C=NCCCN=Cc1c(O)ccc2ccccc12
A) 63.3

* * *

System: SW-620 colon
Assay: NCI tumour cell line growth inhibition, 48 h
property-name: TGI

Q) Retrieve TGI measured for O=C(Cn1c(=O)ccn(C2OC(CO)C(O)C2F)c1=O)c1ccc(F)cc1 (stereo not given) and print it.
A) > 100 µM

Q) Specify reported TGI for the compound shown: COc1ccc(C(=O)Cn2c(C(=O)c3ccc(OC)cc3)nc3ccccc32)cc1
A) > 100 µM

Q) Let me know recorded TGI for S=c1ssc2c3ssc(=S)c3n(Cc3ccccc3)c12 , thanks.
A) > 100 µM

Q) Write down TGI measured for item CN(C)c1ccc(-c2cc(=O)c3ccccc3[nH]2)cc1
A) > 100 µM

Q) Identify measured TGI corresponding to COc1cccc(N2C(=O)c3c(c4[nH]c5ccccc5c4c4ccc(C(C)(C)C)cc34)C2=O)c1
A) > 100 µM

Q) Assign TGI to the following record: Cn1ccnc1C(=O)/C=C/c1ccc(CC(=O)Nc2ccc(Cl)cc2)cc1
A) > 25 µM

Q) Note down TGI recorded for CCOC(=O)C1(C(=O)OCC)C[C@]23OCCC(=O)[C@H]2[C@H]2C(=O)OC(C)(C)O[C@]23C1
A) > 100 µM

Q) Please give the documented TGI of Cc1ccc(S(=O)ON2CCC(C(=O)O)(c3ccccc3)CC2)cc1 (stereo not given)
A) > 100 µM

Q) Find the measured TGI of C/C(=N\N=C(N)N)C(CN(CC(C)C)CC(C)C)C(=O)Nc1ccc(C)cc1C (stereo not given) and report it.
A) > 100 µM

Q) Give a short answer stating reported TGI for C=C[C@@H]1OC(=O)O[C@H]1CO .
A) > 100 µM

Q) Using the record for CC(C)(C)[OH+][O-].[O-]c1ccc(Cl)cc1C=Nc1ccc(Cl)cc1[O-].[O]=[V] , state its measured TGI.
A) 41.7 µM

Q) # return recorded TGI for entry O=C(Nc1ccc(Cl)c(C(F)(F)F)c1)C(=O)C(C(=O)/C=C/c1ccccc1)C1OC(=O)c2ccccc21 (stereo not given)
A) > 100 µM

Q) Give a short answer stating reported TGI for CC(C)C(C(=O)O)N(CC1(O)OCC(O)C(O)C1O)N=O (stereo not given) .
A) > 100 µM

Q) Check the records and state TGI for CN(C)CCCNc1c(O)c2c(c(O)c1Cl)C(=O)C=CC2=O
A) 3.39 µM

Q) Look up and state reported TGI for Cc1c(N2C(=O)/C(=C/C=C/c3ccccc3)N=C2c2ccccc2)c(=O)n(-c2ccccc2)n1C
A) 99.4 µM

Q) Look up TGI of CN(C)c1nc(N(C)C)nc(N(C)C)n1 and report it.
A) > 150 µM

Q) Report measured TGI; entry is COc1cccc(-c2nn(-c3ccccc3)cc2-c2ccnc(NCCNS(=O)(=O)c3ccc(Cl)cc3)c2)c1
A) > 100 µM

Q) Tell us which TGI value is on record for CCCCCCCCC[C@@H]1C[C@@H]2CCC3C(C(=O)OC)=C(C)NC(=N1)N32 (stereo not given in full)
A) > 100 µM

Q) Return the recorded TGI value; entry: CC1=CC=NN2C(=O)[C@H](C)C2C1 (stereo not given in full)
A) > 100 µM

Q) Name the recorded TGI of the item CCN(CC)CCCN(c1cc(OC)cc2nccnc12)S(=O)(=O)c1ccc(C)cc1 in your answer.
A) > 100 µM

Q) Tell me measured TGI for CCOC(=O)c1c(C)n(Cc2ccccc2)c(=O)c2ccccc2c(=O)c2c(=O)ccc(=O)c1=2 please.
A) > 100 µM

Q) Supply reported TGI belonging to this compound: CCOC(=O)/C(C#N)=C/c1ccc2c(-c3c(OCC)ccc4cc(/C=C(\C#N)C(=O)OCC)ccc34)c(OCC)ccc2c1
A) > 100 µM

Q) Entry CC(=O)OCC1OC(On2ccccc2=S)C(OC(C)=O)C(OC(C)=O)C1OC(C)=O (stereo not given) needs its TGI filled in; supply it.
A) > 100 µM

Q) Given the compound CS(=O)(=O)c1ccc(Oc2cc(F)cc(C#N)c2)c2c1[C@H](O)[C@H](F)[C@@H]2F , write its reported TGI.
A) > 100 µM

Q) Specify TGI for O=C1c2ccccc2-c2c1c1ccccc1c(=O)n2Cc1ccco1 and stop.
A) > 100 µM

Q) Note TGI for the compound shown: Oc1ccc2ccccc2c1C=NCCCN=Cc1c(O)ccc2ccccc12
A) 61.8 µM

Q) Write down TGI measured for item Cc1ccc(C)c(NC(=O)C(=O)C2C(=O)C3=C(CC2(C)C)Nc2ccccc2S3)c1 (stereo not given)
A) > 100 µM

Q) Give the measured TGI for COc1ccc(OC)c(C2CCc3nc4nc(N)nc(N)c4cc3C2)c1 (stereo not given)
A) 9.12 µM

Q) Tell me TGI reported for COc1cc(NS(C)(=O)=O)ccc1NCc1cnc2ccc3[nH]c(C)ccc3c12
A) > 100 µM

Q) Answer with the recorded TGI for the compound listed here: CN1C2CCC1CC(OC(c1ccccc1)c1ccccc1)C2 (stereo not given)
A) 27.6 µM

Q) Determine from records and report TGI for CNC(=S)/C(=N\Nc1nc[nH]c1C(N)=O)C(N)=S
A) > 92 µM

Q) Retrieve TGI measured for CCNc1nnc(CSc2nc(-c3ccccc3)c(-c3ccccc3)[nH]2)s1 and print it.
A) 44.1 µM

Q) Annotate the compound O=P(c1ccccc1)(c1ccccc1)C1CC=C(c2ccccc2)C2(CCCC2)C1 (stereo not given) with its measured TGI.
A) > 100 µM

Q) Identify measured TGI corresponding to NCc1ccc(-c2ccc(-c3ccc(-c4ccc(CN)s4)s3)s2)s1
A) > 100 µM

Q) Please give the documented TGI of CCCCCCCCCOC(=O)c1cnc(Cl)cn1
A) 32.5 µM

* * *

Test system: OVCAR-5 ovarian
Test: NCI tumour cell line growth inhibition, 48 h
Where a SMILES comes first, the peptide text is derived from it.
Task for the reader: assign each of the following compounds its reported TGI.

Q) Give the reported value of TGI for this record: CC1=C2C(O)C(C(C)C(=O)NCC(C)C)CCC2(C)C=CC1=O (stereo not given)
A) > 100 µM

Q) Tell me its TGI given CCCCCCCCC[C@@H]1C[C@@H]2CCC3C(C(=O)OC)=C(C)NC(=N1)N32 (stereo not given in full) as the entry.
A) 35.6 µM

Q) Output measured TGI for this item: COc1ccc2nc3cc(Cl)ccc3c(NCCCNCc3cc(OC)c(OC)c(OC)c3)c2c1
A) 3.11 µM

Q) For the compound CC(C)C[C@H](NC(=O)[C@H](Cc1ccccc1)n1ccc(N2CCCCC2)cc1=O)B(O)O , give its reported TGI.
A) 97.3 µM

Q) Report measured TGI; entry is CC/C=C\C[C@H](O)C/C=C1/C(=O)C=C[C@@H]1C/C=C\CCCC(=O)NC(C)C
A) 16.6 µM

Q) Determine from records and report TGI for O=C(O)CC(C(=O)O)c1ccccc1[N+](=O)[O-] (stereo not given)
A) > 100 µM

Q) Recall and state the measured TGI for CC1C(c2ccc(F)cc2)c2cc3c(cc2OC1N1CCCC1)OCO3 (stereo not given) .
A) > 100 µM

Q) Note down TGI recorded for COc1ccc(C(=O)Cn2c(C(=O)c3ccc(OC)cc3)nc3ccccc32)cc1
A) > 100 µM

Q) Give TGI for the following compound: COc1c2c(c(OC)c3c1c(=O)c1ccccc1n3C)OCO2
A) > 100 µM

Q) Return TGI for the following compound: COC(=O)/C=C/c1cc(O)c2c(c1)C(C(=O)OC)C(c1ccc(O)c(O)c1)O2 (stereo not given)
A) > 100 µM

Q) Respond only with TGI recorded for CN1C2CCC1CC(OC(c1ccccc1)c1ccccc1)C2 (stereo not given)
A) 41.2 µM

Q) # return recorded TGI for input CC/C(=N\NC(=O)c1cccnc1)c1ccc2c(c1)OCCO2
A) > 100 µM

Q) Specify reported TGI for the compound shown: CC(=O)ON(OC(C)=O)c1ccc(C)cc1
A) > 100 µM

Q) Indicate the recorded TGI value for this compound: O=C1c2ccccc2-c2c1c1ccccc1c(=O)n2Cc1ccco1
A) > 100 µM

Q) Give recorded TGI. C/C(=N/NC(=S)Nc1ccccc1Cl)c1ccccn1
A) 5.26 µM

Q) Specify TGI for Cc1ccc(-c2c(C#N)c(-c3ccc(Cl)cc3)c(C#N)c(=O)n2NS(=O)(=O)c2ccccc2)cc1 and stop.
A) > 100 µM

Q) Specify measured TGI for O=C(Nc1ccc(S(=O)(=O)Nc2nccs2)cc1)c1cccnc1Nc1cccc(Cl)c1 .
A) 44.8 µM

Q) Kindly indicate its recorded TGI. Item: O=C1OC(c2ccco2)=N/C1=C\c1ccc(Cl)c(Cl)c1
A) > 100 µM

Q) Note down TGI recorded for COc1c(CC=C(C)C)c(O)c(C(CC(C)C)c2c(O)c(C(C)=O)c(O)c3c2OC(C(C)(C)O)C3)c(O)c1C(C)=O (stereo not given)
A) > 12.5 µM

Q) Fill in TGI for record CCC1=C(C)/C(=C/c2[nH]c(C)c(C(=O)CCCCC(=O)OC)c2C)N=C1c1ccc[nH]1
A) > 67.2 µM

Q) Input C/C(CN1C(=O)c2ccccc2C1=O)=N\NS(=O)(=O)c1cccc([N+](=O)[O-])c1 , output reported TGI.
A) > 100 µM

Q) State its TGI for this compound: CC1NC(=O)CNC(=O)CNC(=O)C(Cc2ccc(O)cc2)NC(=O)C(C(C)C)NC(=O)C(C)NC1=O (stereo not given) (cyclo(GGAAVY); configuration not given here)
A) > 100 µM

Q) Give me measured TGI, please, for this compound: O=C(/C=C/c1ccco1)c1ccc(Nc2nc(Nc3ccc(F)cc3)nc(Nc3ccc(Cl)cc3)n2)cc1
A) > 100 µM

Q) Give TGI for the following compound: Cc1ccc(S(=O)(=O)N/N=C(\CCN2CCCC2)CC(c2ccccc2)c2c(O)c3ccccc3oc2=O)cc1 (stereo not given)
A) > 100 µM

Q) Return TGI (reported value) for this compound: CC(C)=CCC[C@]1(C)CC[C@]2(C)C3CCC(=C(C)C)[C@@H](CCCO)[C@]3(C)CC[C@@]2(C)C1 (stereo not given in full)
A) > 100 µM

Origin of values: PubChem BioAssay (NCI)
